test system: Human alphaherpesvirus 1; assay: Inactivation of HSV-1 ribonucleotide reductase at rate constant K inact
MEASURE: kinact (h⁻¹)

Recorded kinact, per entry:
Request: State its kinact: C/C(=N\N=C(/S)N/N=C(\S)Nc1ccc(I)cc1)c1ccccn1
Result: 22

Request: State its kinact: C/C(=N\N=C(/S)N/N=C(\S)Nc1cccc(Cl)c1Cl)c1ccccn1
Result: 49

Request: State its kinact: C/C(=N\N=C(/S)N/N=C(\S)Nc1ccc(Cl)c([N+](=O)[O-])c1)c1ccccn1
Result: 45

Request: State its kinact: C/C(=N\N=C(/S)N/N=C(\S)Nc1ccc(Cl)cc1C)c1ccccn1
Result: 29

a = C/C(=N\N=C(/S)N/N=C(\S)Nc1cccc(C#N)c1)c1ccccn1
b = C/C(=N\N=C(/S)N/N=C(\S)Nc1ccc(C(C)(C)C)cc1)c1ccccn1
Request: Could you determine which record has the numerically smaller kinact? Candidates: a and b Reply with the label of the item you choose.
Result: b

I = C/C(=N\N=C(/S)N/N=C(\S)Nc1ccc(C#N)cc1)c1ccccn1
II = C/C(=N\Nc1nnc(Nc2ccccc2Cl)s1)c1ccccn1
Request: Could you determine which record has the numerically smaller kinact? Candidates: I and II Reply with the label of the item you choose.
Result: II

---

test system: Human alphaherpesvirus 1; test: Inhibitory index against HSV-1 ribonucleotide reductase
MEASURE: Inhibitory index

Request: State its Inhibitory index: C/C(=N\N=C(/S)N/N=C(\S)Nc1ccc(Br)cc1)c1ccccn1
Result: 57

A = C/C(=N\N=C(/S)N/N=C(\S)Nc1ccc(C(F)(F)F)cc1)c1ccccn1
B = COc1cccc(N/C(S)=N/N=C(\S)N/N=C(\C)c2ccccn2)c1
Request: Just curious, which one has the larger Inhibitory index reading, A or B ? Reply with the label of the item you choose.
Result: A

---

system: Human alphaherpesvirus 1; experiment: Inactivation of HSV-1 ribonucleotide reductase at rate constant K inact
MEASURE: kinact (h⁻¹)

Request: State its kinact: C/C(=N\N=C(/S)N/N=C(\S)Nc1ccc([N+](=O)[O-])cc1)c1ccccn1
Result: 33

A = CC(C)C/C(=N\N=C(/S)N/N=C(\S)Nc1ccccc1Cl)c1ccccn1
B = COc1cccc(N/C(S)=N/N=C(\S)N/N=C(\C)c2ccccn2)c1
Request: Just curious, which one has the larger kinact reading, A or B ? Reply with the label of the item you choose.
Result: B
(B: 21 h⁻¹, A: 14 h⁻¹)

---

system: Human alphaherpesvirus 1; assay: Inhibition of HSV-1 ribonucleotide reductase; design: concentration or dose not given beside the values; settings: concentration not given here
MEASURE: inhibition (%)

Recorded inhibition, per entry:
Request: Tell me inhibition of C/C(=N\NC(=O)NNC(=O)Nc1ccccc1Cl)c1ccccn1 when tested on Human alphaherpesvirus 1.
Result: 0

Request: Tell me inhibition of C/C(=N\N=C(/S)N/N=C(\S)Nc1cccc(Cl)c1Cl)c1ccccn1 when tested on Human alphaherpesvirus 1.
Result: 29

1 = C/C(=N\N=C(/S)N/N=C(\S)Nc1ccccc1C(F)(F)F)c1ccccn1
2 = S=C(N/N=C/c1ccccn1)NNC(=S)Nc1ccccc1Cl
Request: Could you determine which record has the numerically smaller inhibition? Candidates: 1 and 2 Reply with the label of the item you choose.
Result: 1
(1: 6%, 2: 51%)

---

molecular target: Ribonucleoside-diphosphate reductase RR1 (Homo sapiens) (UniProt P23921+Q7LG56+P31350); test: Inhibitory index against human ribonucleotide reductase; type: protein-complex assay
MEASURE: Inhibitory index

Request: Tell me Inhibitory index of C/C(=N\N=C(/S)N/N=C(\S)Nc1ccc(Cl)c([N+](=O)[O-])c1)c1ccccn1 when tested on Ribonucleoside-diphosphate reductase RR1 (Homo sapiens) (UniProt P23921+Q7LG56+P31350).
Result: 0.24

1 = C/C(=N\N=C(/S)N/N=C(\S)Nc1ccc(C(F)(F)F)cc1)c1ccccn1
2 = COc1c(Cl)cccc1/N=C(\S)N/N=C(\S)N/N=C(\C)c1ccccn1
3 = C/C(=N\N=C(/S)N/N=C(\S)Nc1ccc(C)cc1)c1ccccn1
4 = O=C(NNC(=S)N/N=C/c1ccccn1)Nc1ccccc1Cl
5 = C/C(=N\N=C(/S)N/N=C(\S)Nc1ccccc1Br)c1ccccn1
Request: Order the entries by their reported Inhibitory index, beginning at the minimum. Labels, ranked as asked.
Result: 5, 1, 2, 4, 3

---

molecular target: Ribonucleoside-diphosphate reductase RR1 (Homo sapiens) (UniProt P23921+Q7LG56+P31350); experiment: Apparent enzyme activity measured as the ratio of HSV-1 and human enzyme inhibition induces; format: functional; settings: Human alphaherpesvirus 1
MEASURE: Apparent selectivity (HSV-1/human inhibition index ratio)

Recorded Apparent selectivity (HSV-1/human inhibition index ratio), per entry:
Request: State its Apparent selectivity (HSV-1/human inhibition index ratio): O=C(NNC(=S)N/N=C/c1ccccn1)Nc1ccccc1Cl
Result: 14

Request: State its Apparent selectivity (HSV-1/human inhibition index ratio): C/C(=N\N=C(/S)N/N=C(\S)Nc1ccccn1)c1ccccn1
Result: 33

Request: State its Apparent selectivity (HSV-1/human inhibition index ratio): C/C(=N\N=C(/S)N/N=C(\S)Nc1ccccc1C(F)(F)F)c1ccccn1
Result: 1.8

A = C/C(=N\N=C(/S)N/N=C(\S)NC12CC3CC(CC(C3)C1)C2)c1ccccn1
B = C/C(=N\N=C(/S)NNC(=S)NC(=O)c1ccccc1)c1ccccn1
C = C/C(=N\N=C(/S)N/N=C(\S)NC1CCCC1)c1ccccn1
D = C/C(=N\N=C(/S)N/N=C(\S)Nc1cccc(Cl)c1Cl)c1ccccn1
Request: Order the entries by their reported Apparent selectivity (HSV-1/human inhibition index ratio), beginning at the minimum. Labels, ranked as asked.
Result: C, B, A, D
(C: 1.3, B: 4.5, A: 24, D: 160)

P = COc1ccc([N+](=O)[O-])cc1/N=C(\S)N/N=C(\S)N/N=C(\C)c1ccccn1
Q = C/C(=N\N=C(/S)N/N=C(\S)Nc1ccncc1)c1ccccn1
R = C/C(=N\N=C(/S)N/N=C(\S)Nc1ccc(C(F)(F)F)cc1)c1ccccn1
Request: Arrange these compounds by their Apparent selectivity (HSV-1/human inhibition index ratio), starting with the largest number. Labels, ranked as asked.
Result: R, P, Q
(R: 350, P: 21, Q: 3.8)

---

test system: Human alphaherpesvirus 1; test: Inhibition of HSV-1 ribonucleotide reductase; design: concentration or dose not given beside the values; conditions: concentration not given here
MEASURE: inhibition (%)

Request: State its inhibition: C/C(=N\Nc1nnc(Nc2ccccc2Cl)s1)c1ccccn1
Result: 53

Request: State its inhibition: C/C(=N\N=C(/S)N/N=C(\S)Nc1ccc(Cl)cc1)c1ccccn1
Result: 61

Request: State its inhibition: C/C(=N\N=C(/S)N/N=C(\S)Nc1ccccn1)c1ccccn1
Result: 57

Request: State its inhibition: COc1ccc([N+](=O)[O-])cc1/N=C(\S)N/N=C(\S)N/N=C(\C)c1ccccn1
Result: 44

---

target: Ribonucleoside-diphosphate reductase RR1 (Homo sapiens) (UniProt P23921+Q7LG56+P31350); assay: Inhibition of human ribonucleotide reductase by the compound (5 uM); type: protein-complex assay
MEASURE: inhibition (%)

Request: State its inhibition: C/C(=N\N=C(/S)N/N=C(\S)Nc1ccccc1C)c1ccccn1
Result: 51

Request: State its inhibition: CCOC(=O)NC(=S)N/N=C(\S)N/N=C(\C)c1ccccn1
Result: 40

Request: State its inhibition: C/C(=N\N=C(/S)N/N=C(\S)Nc1cccc(C)c1)c1ccccn1
Result: 54

Request: State its inhibition: C/C(=N\N=C(/S)N/N=C(\S)Nc1cccnc1)c1ccccn1
Result: 43

---

molecular target: Ribonucleoside-diphosphate reductase RR1 (Homo sapiens) (UniProt P23921+Q7LG56+P31350); test: Inactivation of human ribonucleotide reductase at rate constant K inact; format: protein-complex assay
MEASURE: kinact (h⁻¹)

Recorded kinact, per entry:
Request: Tell me kinact of C/C(=N\N=C(/S)N/N=C(\S)Nc1cc(Cl)ccc1Cl)c1ccccn1 when tested on Ribonucleoside-diphosphate reductase RR1 (Homo sapiens) (UniProt P23921+Q7LG56+P31350).
Result: 0

Request: Tell me kinact of C/C(=N\N=C(/S)N/N=C(\S)Nc1cc(Cl)c(Cl)cc1Cl)c1ccccn1 when tested on Ribonucleoside-diphosphate reductase RR1 (Homo sapiens) (UniProt P23921+Q7LG56+P31350).
Result: 0

A = S=C(N/N=C/c1ccccn1)NNC(=S)Nc1ccccc1Cl
B = COc1cccc(N/C(S)=N/N=C(\S)N/N=C(\C)c2ccccn2)c1
Request: Could you determine which record has the numerically smaller kinact? Candidates: A and B Reply with the label of the item you choose.
Result: A
(A: 0 h⁻¹, B: 7 h⁻¹)

---

// reported Inhibitory index per item
tested on: Human alphaherpesvirus 1; experiment: Inhibitory index against HSV-1 ribonucleotide reductase calculated as, [1+k inact/f+0.01] where f = 1-% inhibition/100).; assay type: functional
Keep it simple and answer with nothing but the number.

Request: State its Inhibitory index: C/C(=N\N=C(/S)N/N=C(\S)NC12CC3CC(CC(C3)C1)C2)c1ccccn1
Result: 27

Request: State its Inhibitory index: C/C(=N\N=C(/S)N/N=C(\S)Nc1cccc(C)c1)c1ccccn1
Result: 26

Next up:
Request: State its Inhibitory index: C/C(=N\N=C(/S)N/N=C(\S)Nc1ccncc1)c1ccccn1
Result: 17
